Please provide measured z-score for the entries that follow.
- assay protocol: splicing luciferase reporter signal modulators, primary screen, spliceosome inhibition project, cell-based, HEK293, splice +/- reporter (AID 1101);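 note: HEK293 cells carrying a splicing-competent luciferase reporter gene; test concentration not given here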
- particulars: luminescence, 24 h, higher = more signal, called active from +8 up or from −8 down
Respond with the number and no other words.

Given the entry CN(C)CCCNC(=O)[C@@H]1c2ccccc2C(=O)N(C2CCCCC2)[C@H]1c1ccc(CO)cc1 , report its measured z-score. 1.39

Given the entry C=C(/C(=C/C[C@@H](OC(C)=O)c1ccc(CO)o1)c1cc(C(=O)OC)ccc1OC)C(C)C , report its measured z-score. 0.227

Given the entry C=CCC(OC(C)=O)[C@@H]1[C@@H](N(Cc2ccc(-c3ccccc3)cc2)C(=O)Cc2ccc(F)cc2)c2cc(OCCCO)ccc2N1C(=O)Cc1ccc2ccccc2c1 (some centres not stated) , report its measured z-score. -0.681

Given the entry O=C1[C@@H]2[C@@H](CC(COc3ccccc3)=C3[C@@H](CCc4ccccc4)OB(O)C[C@@H]32)C(=O)N1Cc1ccccc1 , report its measured z-score. -0.74

Given the entry CC(C)C(=C=CC[C@@H](O)c1cccc(OCCO)c1)C[C@@H](O)c1ccccn1 , report its measured z-score. 0.111

Given the entry COC(=O)[C@@]1(Cc2ccc(F)cc2)[C@H]2c3cc(C(=O)N4CCCC4)n(CC4CC4)c3C[C@H]2CN1C(=O)c1ccccc1 , report its measured z-score. -0.761

Given the entry C=CCNC(=O)[C@@H]1[C@H]2C(=O)O[C@H](c3ccccc3)[C@H](c3ccccc3)N2[C@H](c2ccc(O)cc2)[C@@]12C(=O)Nc1ccc(C#CCC(C(=O)OC)C(=O)OC)cc12 , report its measured z-score. 0.246

---

- measured target: Fibroblast growth factor 10 (Homo sapiens)
- assay protocol: FGF10 binders on small-molecule microarrays, primary screen, biochemical, small-molecule microarray, 635 nm fluorescence (AID 1102)
- particulars: FGF10 binding, fluorescence 635 nm, higher = more signal
Outcome: TRUE for composite z-score of at least 0.6; FALSE for anything lower.

Hello, I need to know if COCCOC(=O)N1C(=O)[C@@]2(c3cc(C#CCC(C(=O)OC)C(=O)OC)ccc31)[C@H](C(=O)NC[C@H](O)c1ccccc1)[C@H]1C(=O)O[C@H](c3ccccc3)[C@H](c3ccccc3)N1[C@@H]2c1ccc(OCCO)cc1 has measured composite z-score not below 0.6. Thanks! TRUE

Hello, I need to know if COCC(=C=CC[C@@H](O)c1ccc(OCCO)cc1)CCO has measured composite z-score not below 0.6. Thanks! TRUE

Hello, I need to know if C[C@]1(C(=O)O)c2ccccc2C(=O)N(Cc2ccc(OC(F)(F)F)cc2)[C@H]1c1ccc(CO)cc1 has measured composite z-score not below 0.6. Thanks! FALSE

Hello, I need to know if C=CCC(OC(C)=O)[C@@H]1[C@@H](N(Cc2ccc(-c3cccc(C(F)(F)F)c3)o2)C(=O)c2ccc(C)cc2)c2cc(OCCCO)ccc2N1C(=O)Cc1ccc(OC)cc1 (some centres not stated) has measured composite z-score not below 0.6. Thanks! FALSE

Hello, I need to know if CC(C)C[C@@H]1NC(=O)[C@@]23C(=O)N[C@@H](Cc4ccccc4)C2[C@H](C)[C@@]2(C)O[C@H]2C3/C=C/C/C=C\CNC(=O)[C@@H](C)NC1=O (some centres not stated) has measured composite z-score not below 0.6. Thanks! FALSE

Hello, I need to know if C=C(C)[C@@H]1CC=C(C(O)C2C=CC3C(=O)N(c4ccccc4)C(=O)C3N2Nc2ccc(C#N)cc2)CC1 (some centres not stated) has measured composite z-score not below 0.6. Thanks! TRUE

Hello, I need to know if [N-]=[N+]=NCc1ccccc1C[C@]1(C(=O)N2CCOCC2)COC(c2ccc(OCCCO)cc2)=N1 has measured composite z-score not below 0.6. Thanks! FALSE

Hello, I need to know if COc1ccc(C(=O)Nc2cccc(CN3C(=O)[C@@]4(O[C@@H](CC(=O)N(CCO)Cc5ccccc5)[C@H]([Si](C)(C)c5ccc(OC)cc5)[C@H]4C)c4ccccc43)c2)cc1 has measured composite z-score not below 0.6. Thanks! FALSE

Hello, I need to know if O=C(O)[C@@H]1C[C@@H]2C(=O)N3CCC[C@H]3C(=O)N2[C@@H]1c1cccc(OCCO)c1 has measured composite z-score not below 0.6. Thanks! TRUE

Hello, I need to know if NC(=O)[C@H]1[C@@H]2C(=O)O[C@@H](c3ccccc3)[C@@H](c3ccccc3)N2[C@@H](c2ccc(O)cc2)[C@]12C(=O)Nc1ccccc12 has measured composite z-score not below 0.6. Thanks! FALSE

Hello, I need to know if CCOC(=O)C[C@H]1[C@H](OC(=O)c2ccc(-c3ccccc3)cc2)[C@@H](NC(=O)CC(C)C)c2cc(OCCCO)ccc2N1C(=O)c1ccccc1 has measured composite z-score not below 0.6. Thanks! FALSE

Hello, I need to know if CN(C)C(=O)[C@]1(CCS(=O)(=O)c2ccccc2)N=C(c2ccc(OCCCO)cc2)O[C@@H]1c1ccccc1 has measured composite z-score not below 0.6. Thanks! TRUE

Hello, I need to know if COc1ccc([Si](C)(C)[C@@H]2[C@@H](CCn3cc([C@H](O)c4ccccc4)nn3)O[C@]3(C(=O)N(c4ccccc4)c4ccccc43)[C@H]2C)cc1 has measured composite z-score not below 0.6. Thanks! FALSE

Hello, I need to know if CCCNC(=O)[C@@]1(Sc2ccc(C)cc2)CC(=O)N(C(C)C)[C@@H]1c1ccc(CO)cc1I has measured composite z-score not below 0.6. Thanks! FALSE

Hello, I need to know if COc1cc(NN2C(C(O)C3CCCCC3)C=CC3C(=O)N(C)C(=O)C32)cc(OC)c1OC (configuration not stated) has measured composite z-score not below 0.6. Thanks! FALSE

Hello, I need to know if CN1C(=O)C2C=CC(C(O)c3ccc(I)cc3)N(Nc3ccccc3)C2C1=O (configuration not stated) has measured composite z-score not below 0.6. Thanks! TRUE

Hello, I need to know if [N-]=[N+]=NCc1ccccc1[C@@H]1OC(c2ccc(OCCCO)cc2)=N[C@]1(Cc1ccccc1)C(=O)NCCN1CCOCC1 has measured composite z-score not below 0.6. Thanks! TRUE

Hello, I need to know if CC(C)CNC(=O)[C@@]1(c2ccc([N+](=O)[O-])cc2)CC(=O)N(C2CCCCC2)[C@@H]1c1ccc(CO)cc1 has measured composite z-score not below 0.6. Thanks! TRUE

Hello, I need to know if COCCOC(=O)N1C(=O)[C@@]2(c3cc(C#CCCO)ccc31)[C@H](C(N)=O)[C@H]1C(=O)O[C@H](c3ccccc3)[C@H](c3ccccc3)N1[C@@H]2c1ccc(OCCO)cc1 has measured composite z-score not below 0.6. Thanks! TRUE

Hello, I need to know if O=C1OCCC=C[C@H]2OC34C=CCN(c5ccc(Cl)cc5)C(=O)[C@H]3N(CCCCCCO)C(=O)[C@@H]4C12 (some centres not stated) has measured composite z-score not below 0.6. Thanks! FALSE

Hello, I need to know if COc1ccc([Si](C)(C)[C@H]2[C@H](CCO)O[C@@]3(C(=O)N(Cc4ccc(N5C(=O)c6ccccc6Oc6ccccc65)cc4)c4ccccc43)[C@@H]2C)cc1 has measured composite z-score not below 0.6. Thanks! FALSE

Hello, I need to know if C=C(/C(=C/C[C@@H](OC(=O)c1ccncc1)c1cccc(OCCO)c1)c1cnc2ccccc2c1)C(C)C has measured composite z-score not below 0.6. Thanks! TRUE

Hello, I need to know if C=C(COC)/C(=C/C[C@H](OC(C)=O)c1cccc(OCCO)c1)c1cnc2ccccc2c1 has measured composite z-score not below 0.6. Thanks! TRUE

Hello, I need to know if COc1ccc([Si](C)(C)[C@@H]2[C@@H](CC(=O)N3Cc4ccccc4C[C@H]3CO)O[C@]3(C(=O)N(Cc4ccc(N5CCC5=O)cc4)c4ccccc43)[C@H]2C)cc1 has measured composite z-score not below 0.6. Thanks! FALSE

Hello, I need to know if CCCCC(=C=CC[C@H](O)c1ccc(OCCO)cc1)C[C@H](O)c1cc(Cl)cc(Cl)c1O has measured composite z-score not below 0.6. Thanks! TRUE

Hello, I need to know if COc1ccc(NC(=O)O[C@H]2[C@@H]3OC(=O)[C@H](Cc4cccc(Br)c4)C/C=C/C[C@@H](Cc4cccc(Br)c4)C(=O)O[C@H]3[C@@H](OC)O[C@@H]2CO)cc1 has measured composite z-score not below 0.6. Thanks! TRUE

Hello, I need to know if C=CCNC(=O)[C@@H]1[C@H]2C(=O)O[C@H](c3ccccc3)[C@H](c3ccccc3)N2[C@H](c2ccc(O)cc2)[C@@]12C(=O)N(C(=O)OCCOC)c1ccc(C#CCCO)cc12 has measured composite z-score not below 0.6. Thanks! TRUE

Reference source: PubChem BioAssay
